# key: entry, value: Control effect of B applied alone in a corresponding dose (%)
# Test system: weeds
# protocol notes: Activity assay of compositions: soil sealing treatment (S), fresh weight inhibition and combined effect (Gowing method)
# Format: in vivo
# condition parameters: Commelina communis, B 30 g a.i./ha, 21 d
parameter measured: Control effect of B applied alone in a corresponding dose (%)

• C#CCN1C(=O)COc2cc(F)c(N3C(=O)C4=C(CCCC4)C3=O)cc21 [Flumioxazin] = 50.6
• COC(=O)CCNC(=O)C(C)Sc1cc(-n2c(=O)cc(C(F)(F)F)n(C)c2=O)c(F)cc1Cl (stereo not drawn) [Tiafenacil] = 48.2
• CCOC(=O)C1(C)CC(c2cc(-n3c(=O)cc(C(F)(F)F)n(C)c3=O)c(F)cc2Cl)=NO1 (stereo not drawn) = 35.0
• CCOC(=O)COc1ncccc1Oc1cc(-n2c(=O)cc(C(F)(F)F)n(C)c2=O)c(F)cc1Cl [Epyrifenacil] = 38.8
• COC(=O)c1csc(C)c1S(=O)(=O)NC(=O)n1nc(OC)n(C)c1=O [Thiencarbazone-methyl] = 56.0
• COC(=O)[C@@H](C)O/N=C/c1cc(-n2c(=O)cc(C(F)(F)F)n(C)c2=O)c(F)cc1Cl = 28.5
